Target: Plasmin (Homo sapiens, UniProt P00747)
Sequence (P00747 97-810): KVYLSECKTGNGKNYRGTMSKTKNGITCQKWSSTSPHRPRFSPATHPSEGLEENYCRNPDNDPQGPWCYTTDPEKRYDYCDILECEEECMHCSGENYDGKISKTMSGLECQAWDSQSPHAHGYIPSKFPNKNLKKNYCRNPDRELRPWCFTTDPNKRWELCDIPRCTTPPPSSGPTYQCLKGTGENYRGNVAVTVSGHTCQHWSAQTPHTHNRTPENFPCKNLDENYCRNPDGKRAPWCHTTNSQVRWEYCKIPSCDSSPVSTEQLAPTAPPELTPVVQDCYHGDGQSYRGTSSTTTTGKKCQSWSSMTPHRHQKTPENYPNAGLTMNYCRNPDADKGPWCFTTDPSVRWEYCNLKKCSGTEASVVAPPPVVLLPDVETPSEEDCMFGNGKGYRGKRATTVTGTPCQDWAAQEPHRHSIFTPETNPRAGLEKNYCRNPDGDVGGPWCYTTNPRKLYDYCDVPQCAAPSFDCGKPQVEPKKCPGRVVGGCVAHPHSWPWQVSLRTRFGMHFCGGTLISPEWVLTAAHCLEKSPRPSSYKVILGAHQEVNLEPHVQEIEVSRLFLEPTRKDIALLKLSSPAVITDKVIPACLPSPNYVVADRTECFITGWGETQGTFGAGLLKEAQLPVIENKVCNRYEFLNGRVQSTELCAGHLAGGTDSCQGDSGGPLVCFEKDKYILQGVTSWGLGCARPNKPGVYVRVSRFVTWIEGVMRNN
Assay: Relative reaction rate of enzymatic hydrolysis of chromogenic substrates, plasmin (p-nitroaniline release at 405 nm)
Assay type: biochemical
Settings: relative to reference substrate XVIII
Counter-ions that a name gives are not always drawn. Where a SMILES comes first, the peptide text is derived from it. [ ]: non-standard residue; d: D form. The star is where a group is joined. pNA = O=[N+]([O-])c1ccc(N*)cc1; Bz = O=C(c1ccccc1)*
Listed here are compounds together with their documented Rel Reaction rates, Pl (Plasmin).

Consider the worked cases shown below.
{"columns": ["COMPOUND", "VAL"],
 "data": [
  ["CC[C@H](C)[C@H](NC(=O)c1ccccc1)C(=O)N[C@@H](CC(C)C)C(=O)N[C@@H](CCCCN)C(=O)Nc1ccc([N+](=O)[O-])cc1 [Bz-Ile-Leu-Lys-pNA] (Bz-Ile-Leu-Lys-pNA)", 130],
  ["CC(C)C[C@H](NC(=O)[C@@H](NC(=O)c1ccccc1)C(C)C)C(=O)N[C@@H](CCCCN)C(=O)Nc1ccc([N+](=O)[O-])cc1 [Bz-Val-Leu-Lys-pNA] (Bz-Val-Leu-Lys-pNA)", 100],
  ["CC[C@@H](C)[C@@H](N)C(=O)N[C@@H](CC(C)C)C(=O)N[C@@H](CCCNC(=N)N)C(=O)Nc1ccc([N+](=O)[O-])cc1 [XV, H-D-Ile-Leu-Arg-pNA . 2 HCl] (H-[dI]-Leu-Arg-pNA)", 75],
  ["CC[C@H](C)[C@H](N)C(=O)N[C@@H](CC(C)C)C(=O)N[C@@H](CCCCN)C(=O)Nc1ccc([N+](=O)[O-])cc1 [H-Ile-Leu-Lys-pNA] (H-Ile-Leu-Lys-pNA)", 35],
  ["CC(C)C[C@H](NC(=O)[C@@H](N)C(C)C)C(=O)N[C@@H](CCCCN)C(=O)Nc1ccc([N+](=O)[O-])cc1 [H-Val-Leu-Lys-pNA] (H-Val-Leu-Lys-pNA)", 25]
]}

Prompt: What measured Rel Reaction rates, Pl (Plasmin) is associated with CC[C@@H](C)[C@@H](N)C(=O)N[C@@H](CC(C)C)C(=O)N[C@@H](CCCCN)C(=O)Nc1ccc([N+](=O)[O-])cc1 [XVII, H-D-Ile-Leu-Lys-pNA . 2 HCl] (H-[dI]-Leu-Lys-pNA) on Plasmin (Homo sapiens, UniProt P00747)?
Completion: 100

Prompt: What measured Rel Reaction rates, Pl (Plasmin) is associated with CC[C@H](C)[C@H](NC(=O)c1ccccc1)C(=O)N[C@@H](CC(C)C)C(=O)N[C@@H](CCCNC(=N)N)C(=O)Nc1ccc([N+](=O)[O-])cc1 [Bz-Ile-Leu-Arg-pNA] (Bz-Ile-Leu-Arg-pNA) on Plasmin (Homo sapiens, UniProt P00747)?
Completion: 55

Prompt: What measured Rel Reaction rates, Pl (Plasmin) is associated with CC(C)C[C@H](NC(=O)[C@H](N)C(C)C)C(=O)N[C@@H](CCCCN)C(=O)Nc1ccc([N+](=O)[O-])cc1 [XVIII, H-D-Val-Leu-Lys-pNA . 2 HCl] (H-[dV]-Leu-Lys-pNA) on Plasmin (Homo sapiens, UniProt P00747)?
Completion: 100

Prompt: What measured Rel Reaction rates, Pl (Plasmin) is associated with CC[C@H](C)[C@H](N)C(=O)N[C@@H](CC(C)C)C(=O)N[C@@H](CCCNC(=N)N)C(=O)Nc1ccc([N+](=O)[O-])cc1 [H-Ile-Leu-Arg-pNA] (H-Ile-Leu-Arg-pNA) on Plasmin (Homo sapiens, UniProt P00747)?
Completion: 10

Entry source: patent US4137225A
